Reported log10 Kd is given for each of the following binders.
Molecular target: T1, P1243_AMBAM (Amblyomma americanum, UniProt A0A0C9S461 26-123);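 further: biolayer interferometry on an Octet system: chemokines at several doses tested against tick chemokine-binding proteins, association, equilibrium and dissociation curves fitted to derive Kd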
T1 sequence: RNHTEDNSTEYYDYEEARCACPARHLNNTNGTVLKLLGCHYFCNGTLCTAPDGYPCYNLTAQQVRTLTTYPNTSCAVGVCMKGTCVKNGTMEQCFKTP
Test: BLI
Reported endpoint: log10 Kd (log10 of the value in nM)

- Binder: "CCL4_HUMAN (ligand) APMGSDPPTACCFSYTARKLPRNFVVDYYETSSLCSQPAVVFQTKRSKQVCADPSESWVQEYVYDLELN"
  log10 Kd: 1.18
- Binder: "CCL4L1_HUMAN (ligand) APMGSDPPTACCFSYTARKLPRNFVVDYYETSSLCSQPAVVFQTKRGKQVCADPSESWVQEYVYDLELN"
  log10 Kd: 1.55
- Binder: "CCL3L1_HUMAN (ligand) APLAADTPTACCFSYTSRQIPQNFIADYFETSSQCSKPSVIFLTKRGRQVCADPSEEWVQKYVSDLELSA"
  log10 Kd: 0.70
- Binder: "CCL27_HUMAN (ligand) FLLPPSTACCTQLYRKPLSDKLLRKVIQVELQEADGDCHLQAFVLHLAQRSICIHPQNPSLSQWFEHQERKLHGTLPKLNFGMLRKMG"
  log10 Kd: 1.18
- Binder: "CCL19_HUMAN (ligand) GTNDAEDCCLSVTQKPIPGYIVRNFHYLLIKDGCRVPAVVFTTLRGRQLCAPPDQPWVERIIQRLQRTSAKMKRRSS"
  log10 Kd: -0.23
- Binder: "CCL16_HUMAN (ligand) QPKVPEWVNTPSTCCLKYYEKVLPRRLVVGYRKALNCHLPAIIFVTKRNREVCTNPNDDWVQEYIKDPNLPLLPTRNLSTVKIITAKNGQPQLLNSQ"
  log10 Kd: -0.03

// data source = patent US20240034757A1
